biological target: Indoleamine 2,3-dioxygenase 1 (Homo sapiens, UniProt P14902); experiment: Inhibition of human recombinant IDO1 using L-Trp as substrate assessed as kynurenine level after 30 mins
Sequence (P14902 whole entry): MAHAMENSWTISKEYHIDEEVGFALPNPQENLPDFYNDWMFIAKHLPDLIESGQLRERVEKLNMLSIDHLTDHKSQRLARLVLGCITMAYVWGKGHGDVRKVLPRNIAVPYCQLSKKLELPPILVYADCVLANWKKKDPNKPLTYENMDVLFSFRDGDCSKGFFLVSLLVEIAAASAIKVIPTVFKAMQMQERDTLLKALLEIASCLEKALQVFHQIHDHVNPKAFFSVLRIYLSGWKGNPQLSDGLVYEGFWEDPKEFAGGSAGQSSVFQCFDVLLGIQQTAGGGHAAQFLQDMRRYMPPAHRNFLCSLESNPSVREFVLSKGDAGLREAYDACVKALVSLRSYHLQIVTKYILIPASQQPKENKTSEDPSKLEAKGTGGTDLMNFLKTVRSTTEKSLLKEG
experimental endpoint: IC50 (µM)

**Query** Fill in the recorded IC50 for this compound, with Indoleamine 2,3-dioxygenase 1 (Homo sapiens, UniProt P14902) as test system: COc1ccc(C2CN=C3C(=O)c4c(CCN)cn(S(=O)(=O)c5ccc(C)cc5)c4C(=O)C32)cc1 (configuration not stated)
**Result** 5.6

**Query** Next record, please: COc1ccc(C2CN=C3C(=O)c4ccn(S(=O)(=O)c5ccc(C)cc5)c4C(=O)C32)cc1 (configuration not stated)
**Result** 5.6
